Source: ChEMBL document CHEMBL2412952

target: UniProtKB P31648; experiment: Binding affinity to mouse GAT1 stably transfected in HEK293 cells assessed as residual binding at 100 uM relative to control; type: cell-based
endpoint: Activity (%)
# output: bare number, implied unit %

Problem: // query Activity value for entry O=C(NCc1ccccc1)C(CCO)NCCCC(c1ccccc1)c1ccccc1 (centres undefined)
Solution: 62

Problem: // query Activity value for entry O=C(NCc1ccc(F)cc1)C(CCO)NCCCC(c1ccccc1)c1ccccc1 (centres undefined)
Solution: 82

Problem: // query Activity value for entry O=C(NCc1ccccc1Cl)C(CCO)N1CCC(=C(c2ccccc2)c2ccccc2)CC1 (centres undefined)
Solution: 68

Problem: // query Activity value for entry Cc1ccc(CNC(=O)[C@@H](C[C@@H](C)O)N2CCC(=C(c3ccccc3)c3ccccc3)CC2)cc1 (relative stereo)
Solution: 58

Problem: // query Activity value for entry C[C@@H](O)C[C@H](C(=O)NCc1ccccc1)N1CCC(=C(c2ccccc2)c2ccccc2)CC1 (relative stereo)
Solution: 50

Problem: // query Activity value for entry CN(CCC=C(c1ccccc1)c1ccccc1)C(CCO)C(=O)NCc1ccccc1Cl (centres undefined)
Solution: 54

Problem: // query Activity value for entry CN(CCC=C(c1ccccc1)c1ccccc1)C(CCO)C(=O)NCc1ccc(Cl)cc1 (centres undefined)
Solution: 61

Problem: // query Activity value for entry Cc1ccc(CNC(=O)[C@@H](C[C@H](C)O)N2CCC(=C(c3ccccc3)c3ccccc3)CC2)cc1 (relative stereo)
Solution: 57

Problem: // query Activity value for entry C[C@H](O)C[C@H](C(=O)NCc1ccccc1Cl)N1CCC(=C(c2ccccc2)c2ccccc2)CC1 (relative stereo)
Solution: 95

----------
target: Sodium- and chloride-dependent GABA transporter 1 (Mus musculus, UniProt P31648); experiment: Inhibition of mouse GAT1-mediated [3H]GABA uptake stably transfected in HEK293 cells; type: cell-based
endpoint: IC50 (µM)
# output: bare number, implied unit µM

Consider the worked cases shown below.
[[record]]
compound = "O=C(NCc1ccc(Cl)cc1)C(CCO)N1CCC(=C(c2ccccc2)c2ccccc2)CC1 (stereo unspecified)"
endpoint = "IC50"
measureunit = "µM"
recordedresult = 33.9

[[record]]
compound = "C[C@@H](O)C[C@H](C(=O)NCc1ccc(F)cc1)N1CCC(=C(c2ccccc2)c2ccccc2)CC1 (relative stereo)"
endpoint = "IC50"
measureunit = "µM"
recordedresult = 16.2

[[record]]
compound = "CN(CCCC(c1ccccc1)c1ccccc1)C(CCO)C(=O)NCc1ccccc1 (stereo unspecified)"
endpoint = "IC50"
measureunit = "µM"
recordedresult = 58.9

[[record]]
compound = "O=C(NCc1ccc(F)cc1)C(CCO)N1CCC(C(c2ccccc2)c2ccccc2)CC1 (stereo unspecified)"
endpoint = "IC50"
measureunit = "µM"
recordedresult = 18.2

[[record]]
compound = "CN(CCCC(c1ccccc1)c1ccccc1)C(CCO)C(=O)NCc1ccc(Cl)cc1 (stereo unspecified)"
endpoint = "IC50"
measureunit = "µM"
recordedresult = 38.9


Now turn to the next compound.
Problem: // query IC50 value for entry CN(CCC=C(c1ccccc1)c1ccccc1)C(CCO)C(=O)NCc1ccccc1 (stereo unspecified)
Solution: 10.5

----------
target: Sodium- and chloride-dependent GABA transporter 1 (Mus musculus) (UniProt P31648); assay: Binding affinity to mouse GAT1 stably transfected in HEK293 cells assessed as residual binding at 100 uM relative to control; format: cell-based
endpoint: Activity (%)
# output: bare number, implied unit %

Consider the worked cases shown below.
[[record]]
compound = "Cc1ccc(CNC(=O)C(CCO)N(C)CCC=C(c2ccccc2)c2ccccc2)cc1 (stereo not drawn)"
endpoint = "Activity"
measureunit = "%"
recordedresult = 50

[[record]]
compound = "C[C@H](O)C[C@H](C(=O)NCc1ccc(F)cc1)N1CCC(=C(c2ccccc2)c2ccccc2)CC1 (relative stereo)"
endpoint = "Activity"
measureunit = "%"
recordedresult = 52

[[record]]
compound = "O=C(NCc1ccccc1Cl)C(CCO)N1CCC(C(c2ccccc2)c2ccccc2)CC1 (stereo not drawn)"
endpoint = "Activity"
measureunit = "%"
recordedresult = 89

[[record]]
compound = "CN(CCCC(c1ccccc1)c1ccccc1)C(CCO)C(=O)NCc1ccccc1Cl (stereo not drawn)"
endpoint = "Activity"
measureunit = "%"
recordedresult = 85

[[record]]
compound = "CN(CCCC(c1ccccc1)c1ccccc1)C(CCO)C(=O)NCc1ccc(F)cc1 (stereo not drawn)"
endpoint = "Activity"
measureunit = "%"
recordedresult = 74

[[record]]
compound = "O=C(NCc1ccc(F)cc1)C(CCO)N1CCC(C(c2ccccc2)c2ccccc2)CC1 (stereo not drawn)"
endpoint = "Activity"
measureunit = "%"
recordedresult = 49

[[record]]
compound = "CN(CCCC(c1ccccc1)c1ccccc1)C(CCO)C(=O)NCc1ccccc1 (stereo not drawn)"
endpoint = "Activity"
measureunit = "%"
recordedresult = 79


Now turn to the next compound.
Problem: # get_value(readout= Activity, system= Sodium- and chloride-dependent GABA transporter 1 (Mus musculus) (UniProt P31648)) for CN(CCCC(c1ccccc1)c1ccccc1)C(CCO)C(=O)NCc1ccc(Cl)cc1 (stereo not drawn)
Solution: 67
